IC50: recorded values
# system_tested: p-Akt3 in WM115 cells (Homo sapiens)
# Construct: SureFire assays to detect cellular p-Akt1, p-Akt2 and p-Akt3 levels in WM115 cells (Akt2/3) and LNCaP cells (Akt1); endogenous in cells; host or cells: WM115 (ECACC 91061232), insulin-stimulated
# Sequence (Q9Y243 whole entry): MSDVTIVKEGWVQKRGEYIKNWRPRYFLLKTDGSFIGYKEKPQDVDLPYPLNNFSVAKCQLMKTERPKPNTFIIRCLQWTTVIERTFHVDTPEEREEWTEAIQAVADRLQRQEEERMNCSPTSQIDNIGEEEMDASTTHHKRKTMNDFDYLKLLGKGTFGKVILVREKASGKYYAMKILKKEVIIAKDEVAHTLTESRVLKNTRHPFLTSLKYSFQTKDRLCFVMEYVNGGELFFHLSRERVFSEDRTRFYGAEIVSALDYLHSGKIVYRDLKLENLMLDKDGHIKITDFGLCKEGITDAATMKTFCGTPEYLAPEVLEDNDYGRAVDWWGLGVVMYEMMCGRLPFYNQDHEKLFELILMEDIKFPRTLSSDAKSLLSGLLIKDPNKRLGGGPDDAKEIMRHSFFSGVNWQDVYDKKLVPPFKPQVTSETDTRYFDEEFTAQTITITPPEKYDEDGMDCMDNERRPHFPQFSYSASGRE
# measurement_protocol: Phospho-Akt cellular SureFire assay, p-Akt3 in WM115 cells
# Assay type: cell-based
# cond: insulin stimulated, read-out: Biological Assay 2 IC50 (nM) Akt3 WM115
Numbers only here, please. The scale is nM.

compound: CC(=O)N(C)[C@H]1CC[C@H](CC(=O)Nc2cc(-c3ccccc3)c(-c3ccc(C4(N)CC4)cc3)nn2)CC1 [Example 72]
IC50, nM: 35
//
compound: CC(=O)N(C)[C@H]1CC[C@H](CC(=O)Nc2cnc(-c3ccc(C(C)(C)N)cc3)c(-c3ccccc3)c2)CC1 [Example 3]
IC50, nM: 170
//
compound: CC(=O)N(C)[C@H]1CC[C@H](CC(=O)Nc2cnc(-c3ccc(C(C)(C)N)cc3)c(-c3ccccc3F)c2)CC1 [Example 9]
IC50, nM: 110

[Q] Specify IC50 for COC(=O)N(C(C)C)[C@H]1CC[C@H](CC(=O)Nc2cc(-c3ccccc3)c(-c3ccc([C@]4(N)C[C@](C)(O)C4)cc3)cn2)CC1 [Example A105] and stop.
[A] 300

====

# system_tested: Akt3 (Homo sapiens, UniProt Q9Y243)
# Construct: unspecified tag, removed (detagged) (cleaved yes); purchased SignalChem and Proteros (Akt3); Merck Millipore (PDK1) 14-452 (PDK1); none given for Akt3
# Sequence (Q9Y243 whole entry): as above
# measurement_protocol: Akt activation assay (PDK1-mediated activation, LANCE Ultra crosstide TR-FRET), Akt3
# Assay type: biochemical
# cond: read-out: Biological Assay 1 IC50 (nM) Akt3
measurement_type: IC50 (nM)
Numbers only here, please. The scale is nM.

compound: CC(=O)N[C@H]1CC[C@H](CC(=O)Nc2cnc(-c3ccc([C@]4(N)C[C@H](F)C4)cc3)c(-c3ccccc3)c2)CC1 [Example 15]
IC50, nM: 180

compound: CN(C(=O)CC1CC1)[C@H]1CC[C@H](CC(=O)Nc2cnc(-c3ccc(C(C)(C)N)cc3)c(-c3ccccc3)c2)CC1 [Example A32]
IC50, nM: 630

compound: COC(=O)N(C)[C@H]1CC[C@H](CC(=O)Nc2cc(-c3ccsc3)c(-c3ccc([C@]4(N)C[C@H](F)C4)cc3)nn2)CC1 [Example A70]
IC50, nM: 36

compound: COC(=O)N(C)[C@H]1CC[C@H](CC(=O)Nc2cc(-c3ccccc3)c(-c3ccc([C@]4(N)C[C@](C)(O)C4)cc3)nn2)CC1 [Example 59]
IC50, nM: 4

compound: CCC(=O)N(C)[C@H]1CC[C@H](CC(=O)Nc2cnc(-c3ccc(C4(N)CC4)c(F)c3)c(-c3ccccc3)c2)CC1 [Example 90]
IC50, nM: 120

[Q] Specify IC50 for CC(C)(N)c1ccc(-c2nnc(NC(=O)C[C@H]3CC[C@H](N4CCOC4=O)CC3)cc2-c2ccsc2)cc1 [Example 80] and stop.
[A] 130

====

IC50: recorded values
# system_tested: Akt1 (Homo sapiens, UniProt P31749)
# Construct: unspecified tag, removed (detagged) (cleaved yes); purchased SignalChem and Proteros (Akt1); Merck Millipore (PDK1) 14-452 (PDK1); none given for Akt1
# Sequence (P31749 whole entry): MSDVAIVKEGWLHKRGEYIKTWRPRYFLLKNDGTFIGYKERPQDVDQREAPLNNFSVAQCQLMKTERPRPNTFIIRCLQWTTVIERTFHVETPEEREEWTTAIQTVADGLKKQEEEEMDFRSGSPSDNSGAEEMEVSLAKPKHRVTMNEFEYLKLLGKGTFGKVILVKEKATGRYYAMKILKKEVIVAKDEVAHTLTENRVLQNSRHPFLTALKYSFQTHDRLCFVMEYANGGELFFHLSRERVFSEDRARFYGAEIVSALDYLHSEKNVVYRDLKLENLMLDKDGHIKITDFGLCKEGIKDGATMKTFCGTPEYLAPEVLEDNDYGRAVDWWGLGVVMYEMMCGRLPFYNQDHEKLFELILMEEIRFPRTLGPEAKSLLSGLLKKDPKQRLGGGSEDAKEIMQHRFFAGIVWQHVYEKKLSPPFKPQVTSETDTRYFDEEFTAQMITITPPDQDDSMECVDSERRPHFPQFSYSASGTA
# measurement_protocol: Akt activation assay (PDK1-mediated activation, LANCE Ultra crosstide TR-FRET), Akt1
# Format: biochemical
# cond: read-out: Biological Assay 1 IC50 (nM) Akt1
# Description: Biological Assay 1: Akt Activation Assay Addition of a Europium-labelled antibody specific to the phosphopeptide allows energy transfer from the Europium donor to the Ultra Ulight™ acceptor if close enough in proximity. […] 5 μL enzyme in 1×AB was incubated with 2.5 μL test compound. […] Plates read with the EnVision® Multilabel Plate Reader, excitation at 320 nm and emission at 665 nm and 615 nm. Compound IC50 was determined using a 4-parameter equation.

compound: COC(=O)N(C)[C@H]1CC[C@H](CC(=O)Nc2cc(-c3ccsc3)c(-c3ccc(C(C)(C)N)cc3)nn2)CC1
measurement_type: IC50
value_reported: > 30000 nM

compound: C[C@H](N)c1ccc(-c2ncc(NC(=O)C[C@H]3CC[C@H](NC(=O)C(C)(C)C(F)(F)F)CC3)cc2-c2ccccc2)cc1
measurement_type: IC50
value_reported: > 30000 nM

compound: N[C@]1(c2ccc(-c3ncc(NC(=O)C[C@H]4CC[C@H](N5CCOC5=O)CC4)cc3-c3ccccc3)cc2)C[C@@H](F)C1
measurement_type: IC50
value_reported: 5900 nM

[Q] Specify IC50 for CC(C)(N)c1ccc(-c2ncc(NC(=O)C[C@H]3CC[C@H](C(=O)N4CCOCC4)CC3)cc2-c2ccccc2)cc1 and stop.
[A] > 30000 nM

[Q] Specify IC50 for CC(=O)N(C(C)C)[C@H]1CC[C@H](CC(=O)Nc2cnc(-c3ccc([C@]4(N)C[C@](C)(O)C4)cc3)c(-c3ccccc3)c2)CC1 and stop.
[A] 8600 nM

[Q] Specify IC50 for COC1CCC(CC(=O)Nc2cnc(-c3ccc(C4(N)COC4)cc3)c(-c3ccccc3)c2)CC1 (mixture of isomers) and stop.
[A] > 55000 nM

[Q] Specify IC50 for CC(C)(N)c1ccc(-c2cnc(NC(=O)C[C@H]3CC[C@H](N4CCOC4=O)CC3)cc2-c2ccsc2)cc1 and stop.
[A] > 30000 nM

[Q] Specify IC50 for CC(=O)N(C)[C@H]1CC[C@H](CC(=O)Nc2cnc(-c3ccc(C(C)(C)N)nc3)c(-c3ccccc3)c2)CC1 and stop.
[A] > 30000 nM

[Q] Specify IC50 for CC(=O)N(C(C)C)[C@H]1CC[C@H](CC(=O)Nc2cc(-c3ccccc3)c(-c3ccc([C@]4(N)C[C@](C)(O)C4)cc3)cn2)CC1 and stop.
[A] 4100 nM

[Q] Specify IC50 for CN(C(=O)C1CC1)[C@H]1CC[C@H](CC(=O)Nc2cc(-c3ccccc3)c(-c3ccc(C4(N)CC4)cc3)nn2)CC1 and stop.
[A] > 30000 nM

[Q] Specify IC50 for COC(=O)N(C)[C@H]1CC[C@H](CC(=O)Nc2cc(-c3ccccc3)c(-c3ccc(C4(N)CC(F)(F)C4)cc3)nn2)CC1 and stop.
[A] > 30000 nM

[Q] Specify IC50 for CCC(=O)N(C)[C@H]1CC[C@H](CC(=O)Nc2cc(-c3ccsc3)c(-c3ccc([C@]4(N)C[C@H](F)C4)cc3)nn2)CC1 and stop.
[A] > 30000 nM

[Q] Specify IC50 for CN(C(=O)C1CC1)[C@H]1CC[C@H](CC(=O)Nc2cc(-c3ccccc3)c(-c3ccc([C@]4(N)C[C@H](F)C4)cc3)nn2)CC1 and stop.
[A] 10000 nM

[Q] Specify IC50 for C[C@]1(O)C[C@@](N)(c2ccc(-c3ncc(NC(=O)C[C@H]4CC[C@H](NC(=O)C(F)F)CC4)cc3-c3ccccc3)cc2)C1 and stop.
[A] 760 nM
